experiment: Luminescence Cell-Based Dose Confirmation HTS to Identify Inhibitors of Platelet Dense Granule Release. [Related pubchem assays: 1663 (Primary HTS), 1678 (Summary of Project)]; assay type: functional
Calls of active or inactive are those of the source.
parameter: EC50

smiles	reported result
Cc1ccccc1/N=C/C1=C(O)c2ccccc2C1=O	3.79 µM (active)
COc1ccc(/C=N/N(C)c2cc(=O)n(C)c(=O)[nH]2)cc1OC	0.693 µM (active)
Cn1c(SCC(=O)N2CCCC2)nnc1-c1cccs1	> 112 µM (not active)

Turning to the following compound.
*Q* Specify reported EC50 for the compound shown: "Cn1c(=S)oc2ccccc21"
*A* > 112 µM (not active)

###

EC50 reference
tested on: Streptococcus sp. 'group A'; assay: growth inhibition of control SK(-) GAS strain, dose response, counter-screen for streptokinase expression inhibitor project, luminescence, kanamycin, BacTiterGlo, confirmation (AID 1900); assay type: functional, organism-based
Activity calls are given as the source filed them.

smiles	EC50
Cc1ccccc1NC(=O)NCCCCc1ccccc1	> 150 µM (not active)

Turning to the following molecule.
*Q* Specify reported EC50 for the molecule shown: "CC(C)CN(Cc1cc(=O)oc2cc3c(cc12)CCCC3)CC(C)C"
*A* 6.12 µM (active)

###

EC50 reference
target: Protein RecA (Mycobacterium tuberculosis); assay: Fluorescence Cell-Free Homogeneous Dose Retest to Identify Inhibitors of RecA-Intein Splicing Activity. [Related pubchem assays (depositor defined):AID2097, AID2223, AID489010, AID492950]; type: functional
The source made the active and inactive calls.

*Q* Specify reported EC50 for the compound shown: CCOC(=O)Cc1n[nH]c2c1C(c1ccsc1)C(C#N)=C(N)O2 (stereo not drawn)
*A* 31.3 µM (active)

*Q* Specify reported EC50 for the compound shown: CC(=O)Oc1ccc2ccccc2c1C(NC(=O)Cc1ccccc1)c1ccc(Cl)cc1 (stereo not drawn)
*A* 31.6 µM (active)

*Q* Specify reported EC50 for the compound shown: "Oc1cnn(-c2ccccc2)c1"
*A* 1.1 µM (active)

###

biological target: Kappa-type opioid receptor (Homo sapiens); assay type: functional
Sequence (P41145 whole entry): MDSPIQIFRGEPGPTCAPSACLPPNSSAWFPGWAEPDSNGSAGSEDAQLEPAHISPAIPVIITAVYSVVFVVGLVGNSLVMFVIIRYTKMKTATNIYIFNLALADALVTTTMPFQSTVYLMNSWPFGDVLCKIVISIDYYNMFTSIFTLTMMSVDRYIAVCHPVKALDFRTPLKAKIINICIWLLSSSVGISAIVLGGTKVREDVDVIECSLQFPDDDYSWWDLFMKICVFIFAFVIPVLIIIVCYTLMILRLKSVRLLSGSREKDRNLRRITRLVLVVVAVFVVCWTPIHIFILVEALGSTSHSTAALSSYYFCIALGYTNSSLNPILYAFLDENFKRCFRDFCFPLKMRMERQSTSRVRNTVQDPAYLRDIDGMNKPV
parameter: EC50 (µM)
Report the figure in µM without appending any unit label.

*Q* Specify reported EC50 for the compound shown: O=C1C2ON(c3ccccc3)C(c3cccnc3)C2C(=O)N1c1ccc(Cl)c(Cl)c1 (stereo unspecified)
*A* 26.4

###

biological target: Eukaryotic translation initiation factor 4E (Mus musculus, UniProt P63073); test: eIF4E–eIF4G protein interaction inhibitors, dose response, biochemical, TR-FRET (AID 855); assay type: functional;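 also: potency for disrupting eIF4E binding to eIF4GI seen as loss of FRET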
Sequence (P63073 whole entry): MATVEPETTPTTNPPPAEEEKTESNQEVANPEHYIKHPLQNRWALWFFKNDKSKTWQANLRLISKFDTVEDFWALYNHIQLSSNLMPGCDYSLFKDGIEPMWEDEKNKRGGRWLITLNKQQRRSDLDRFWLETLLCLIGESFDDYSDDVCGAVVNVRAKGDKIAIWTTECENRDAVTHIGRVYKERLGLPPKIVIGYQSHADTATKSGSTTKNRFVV
Calls of active or inactive are those of the source.
Pick one: active, inactive

*Q* Dear colleague, could you share the recorded outcome for O=C(OCC1CC(c2ccccn2)=NO1)c1ccc(Br)cc1 (stereo unspecified) when you have a moment?
*A* inactive

*Q* Dear colleague, could you share the recorded outcome for "COCC/N=c1\scc(-c2ccco2)n1/N=C/c1ccc(O)c(O)c1O" when you have a moment?
*A* inactive

*Q* Dear colleague, could you share the recorded outcome for "O=C(c1cccn2c(=O)c3cc(Cl)ccc3nc12)N1CCN(Cc2ccc3c(c2)OCO3)CC1" when you have a moment?
*A* inactive

*Q* Dear colleague, could you share the recorded outcome for "O=C(C[n+]1c2n(c3ccc(C(F)(F)F)cc31)CCCCC2)Nc1ccccc1" when you have a moment?
*A* inactive

*Q* Dear colleague, could you share the recorded outcome for "O=C(/C=C/c1cccs1)Nc1scc(-c2ccccc2)c1C(=O)O" when you have a moment?
*A* active

*Q* Dear colleague, could you share the recorded outcome for "O=S(=O)(NCCc1ccc(F)cc1)c1cccc2cccnc12" when you have a moment?
*A* inactive
